// data source = PubChem BioAssay AID1866

- ASSAY_SYSTEM: Beta-lactamase TEM (Escherichia coli)
- ASSAY_PROCEDURE: inhibition of purified E. coli TEM-1 enzyme – biochemical, epi-absorbance, HTS, counter-screen for VIM-2 inhibitor project (AID 1866);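 further: 0% = TEM-1 with DMSO and 100% = TEM-1 with 100 µM potassium clavulanate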
- EXPERIMENTAL_CONDITIONS: Purified TEM-1, nitrocefin hydrolysis, epi-absorbance fluorescence; at 5.6 µM; stronger effect = higher value
Among all 1,300 compounds or so, about 40 (3%) were called active. Only a sample is shown.
compounds and their reported inhibition
Write the number in % without appending the unit.

Use the examples below as a reference point.
# COMPOUND, ASSAY_SYSTEM, UNIT_NAME, OBSERVED_VALUE
rows = [
    ("CC(NS(=O)(=O)c1ccccc1)c1n[nH]c(=S)n1-c1ccccc1 (stereo not drawn)", "Beta-lactamase TEM (Escherichia coli)", "%", -5.56),
    ("O=C(NC(=S)Nc1ccccc1C(=O)O)c1ccc(-c2ccc(Br)cc2)o1", "Beta-lactamase TEM (Escherichia coli)", "%", -8.31),
    ("Cn1c(-c2sccc2OCc2cccc(C(F)(F)F)c2)n[nH]c1=S", "Beta-lactamase TEM (Escherichia coli)", "%", -7.73),
    ("Cc1ccc(Cl)cc1-c1ccc(/C=N/n2cnnc2)o1", "Beta-lactamase TEM (Escherichia coli)", "%", -6.18),
    ("Cc1cccn2c(=O)c(C=O)c(Nc3ccc(S(N)(=O)=O)cc3)nc12", "Beta-lactamase TEM (Escherichia coli)", "%", -4.52),
]

Summary line: CCN(CC)CCOc1ccc2c(c1)C(=NNC(=O)c1ccccn1)c1cc(OCCN(CC)CC)ccc1-2 , Beta-lactamase TEM (Escherichia coli), reported inhibition = -8.91

Record CCOc1cc(/C=C2\SC(N3CCCC(C)C3)=NC2=O)ccc1O (stereo not drawn) ; system Beta-lactamase TEM (Escherichia coli); inhibition = -1.56

Record O=C1Nc2cc(C(=O)N3CCC(N4CCCCC4)CC3)ccc2S/C1=C\c1ccccc1 has Beta-lactamase TEM (Escherichia coli) inhibition equal to -5.79

inhibition on Beta-lactamase TEM (Escherichia coli) for Cc1cc(-c2ccc(/C=N/n3cnnc3)o2)c([N+](=O)[O-])cc1C is -5.24

The reported Beta-lactamase TEM (Escherichia coli) inhibition of CN(C)CCNc1ccc(-c2n[nH]c(=O)c3ccccc23)cc1[N+](=O)[O-] is -7.17

Fill in: Beta-lactamase TEM (Escherichia coli) inhibition for Fc1ccc(-c2ccc(CNCc3ccccn3)o2)cc1Cl = -5.72

The recorded inhibition with Beta-lactamase TEM (Escherichia coli) for COc1ccc(Nc2cc(C)nc(-n3nc(C)cc3C)n2)cc1 was -7.46

Form: item CC(C)(C)CC(=O)Nc1nnc(SCC(=O)NCc2cccs2)s1 ; test system Beta-lactamase TEM (Escherichia coli); inhibition: -5.92
